Test target: Hyaluronidase-1 (Homo sapiens)
Sequence (Q12794 whole entry): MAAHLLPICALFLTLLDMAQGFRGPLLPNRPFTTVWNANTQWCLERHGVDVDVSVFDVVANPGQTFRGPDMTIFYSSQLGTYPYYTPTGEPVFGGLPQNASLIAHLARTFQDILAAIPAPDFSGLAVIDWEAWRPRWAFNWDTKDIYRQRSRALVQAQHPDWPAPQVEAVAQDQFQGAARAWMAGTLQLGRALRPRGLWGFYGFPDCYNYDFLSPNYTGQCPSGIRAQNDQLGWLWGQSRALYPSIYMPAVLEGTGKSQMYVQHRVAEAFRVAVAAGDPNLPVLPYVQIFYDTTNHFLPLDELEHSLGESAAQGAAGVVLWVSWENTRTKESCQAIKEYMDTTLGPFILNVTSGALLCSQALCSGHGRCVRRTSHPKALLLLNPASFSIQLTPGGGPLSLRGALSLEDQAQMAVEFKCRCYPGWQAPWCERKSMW
Protocol summary: Stains-all Assay
Run conditions: pH 7; 37 °C
Metric name: IC50 (µM)
# value in µM; strip the unit string

Use the examples below as a reference point.
In [3]: df
Out[3]:
                              smiles_record  value_units  value
0  O=C(NCc1ccc(F)cc1)c1cc2ccccc2n1Cc1ccc(F)cc1           µM   29.9
1  O=C(NCc1ccccc1)c1cc2ccccc2n1Cc1ccc(F)cc1           µM   41.1
2  O=C(NCc1ccc(Cl)cc1)c1cc2ccccc2n1Cc1ccccc1           µM   33.2
3  O=C(NCc1ccc(F)cc1)c1cc2ccccc2n1Cc1ccccc1           µM   27.2
4  O=C(NCc1ccccc1)c1cn(Cc2ccc(F)cc2)c2ccccc12           µM     33

Let's switch to this molecule now.
Form field: reported IC50 of "O=C(NCc1ccccc1)c1cc2ccccc2n1Cc1ccccc1" 40.3
